FYI, the data here is from PubChem BioAssay AID449727.

Target: Tyrosine-protein phosphatase non-receptor type 22 (Homo sapiens) (UniProt Q9Y2R2)
Sequence (Q9Y2R2 whole entry, looked up): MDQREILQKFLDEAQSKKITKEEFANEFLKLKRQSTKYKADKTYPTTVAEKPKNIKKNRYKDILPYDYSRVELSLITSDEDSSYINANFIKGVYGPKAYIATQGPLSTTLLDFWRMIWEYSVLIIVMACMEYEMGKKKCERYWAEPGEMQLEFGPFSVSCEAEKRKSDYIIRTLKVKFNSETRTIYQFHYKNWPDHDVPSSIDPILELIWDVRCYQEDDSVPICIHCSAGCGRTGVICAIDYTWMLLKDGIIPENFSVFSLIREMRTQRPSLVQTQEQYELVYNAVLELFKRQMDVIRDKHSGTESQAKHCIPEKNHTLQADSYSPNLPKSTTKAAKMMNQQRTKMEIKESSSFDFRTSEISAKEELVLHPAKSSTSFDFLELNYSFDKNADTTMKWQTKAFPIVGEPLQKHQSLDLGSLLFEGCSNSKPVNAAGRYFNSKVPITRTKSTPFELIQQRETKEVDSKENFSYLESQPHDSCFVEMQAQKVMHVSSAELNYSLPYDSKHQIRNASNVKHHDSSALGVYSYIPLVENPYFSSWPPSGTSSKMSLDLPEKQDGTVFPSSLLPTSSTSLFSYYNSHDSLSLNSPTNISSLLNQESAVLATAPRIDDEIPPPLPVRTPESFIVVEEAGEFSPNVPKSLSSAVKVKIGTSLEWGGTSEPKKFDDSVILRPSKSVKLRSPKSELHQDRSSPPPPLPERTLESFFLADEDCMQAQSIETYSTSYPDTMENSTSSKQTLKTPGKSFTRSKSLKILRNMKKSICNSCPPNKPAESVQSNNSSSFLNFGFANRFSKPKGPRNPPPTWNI
Experiment: LYP (PTPN22) phosphatase inhibitor potency, SAR follow-up, biochemical, pCAP fluorogenic substrate, fluorescence, set 3 (AID 449727)
Settings: recombinant LYP
pIC50: −log10 of the molar value.
PROPERTY_LABEL: pIC50

Past entries and their recorded results:
O=C(O)CCCN1C(=O)/C(=C/c2ccc(-c3nc4ccccc4s3)o2)SC1=S
5.40
Cc1c(Cl)cccc1NS(=O)(=O)c1ccc2c(c1)C1C=CCC1C(c1ccc(C(=O)O)cc1)N2 (stereo unspecified)
4.33
CCc1ccc(/C=C2\SC(=S)N(CCCC(=O)Nc3ccc(C(=O)O)cc3)C2=O)cc1
4.12
N#C/C(=C\c1ccc(OCc2ccc(Cl)cc2)cc1)C(=O)Nc1cccc(C(=O)O)c1
5.20

[1] CCOC(=O)C1=C(C)N=c2s/c(=C/c3cc(Cl)c(OCC(=O)O)c(OC)c3)c(=O)n2C1c1ccccc1Cl (stereo unspecified)
[2] COc1ccc(/C=C2\SC(=S)N(CCC(=O)Nc3ccc(C(=O)O)cc3)C2=O)cc1OC
## Task Which is greater in pIC50, the first item 1 or the second item 2 ? When you have decided, please share the label of that item.
## Result 2
(2: 5.53, 1: 4.51)
